The reported numbers originate from the supplement of paper PMC10567573.

Assay: protein stability index of a GFP-peptide fusion (GPS, HEK-293T) (PSI 1-6); higher = more stable;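 further: 24-mer peptide tiles fused after GFP, lentivirally expressed, FACS-sorted into six equal bins by GFP/DsRed ratio, decoded by Illumina sequencing, PSI is the read-weighted mean bin number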
Conditions: treatment: MLN4924 1 uM, 8 h; c terminus: a fixed tail appended
Label 0 if protein stability index falls below 3; label 1 in every other case.

Observe how each entry below is paired with its result.
[[record]]
record_sequence = "PERLHAIKEQLIQEGLLDRCVSFQ [HDAC6]"
answer_label = 1

[[record]]
record_sequence = "GVSSVDSAFSSRGSLSLSFEREPS [RIPK4]"
answer_label = 1

[[record]]
record_sequence = "HNIFLLGGSSTSERCLLNNSLWKK [NLN]"
answer_label = 0

[[record]]
record_sequence = "SKNLIYRDVKPENFLIGRQGNKKE [CSNK1G1]"
answer_label = 1

[[record]]
record_sequence = "QFAAEYTSKNSSTQDPSQPNSTKN [LCOR]"
answer_label = 1


Query: Confirm if protein stability index reported for the sequence VPARDGTSCKLTDLRGVCVSGKCE [ADAMTSL2] is 3 or above.
Response: 1

Query: Confirm if protein stability index reported for the sequence GIAIVSVLVILISIVIFCLETLPE [KCNA3] is 3 or above.
Response: 0

Query: Confirm if protein stability index reported for the sequence LTAKQLIKSIVEASKGCQLGKTEQ [TRIM63] is 3 or above.
Response: 0
